System: Staphylococcus aureus (SAU)
test description: paper diffusion method drug sensitivity test
Format: cell-based
experimental parameters: 30 μg/tablet paper disc (6.35 mm), LB plate, 37° C., 24 h
readout label: Zone of inhibition (mm)
Provide the reading as a plain figure in mm.

Look over these answered cases.
O=C(OC/C=C/c1ccccc1)c1cc(O)c2c(c1)C(=O)c1cccc(O)c1C2=O: 13
OCC=Cc1ccccc1: 17
Cc1nnc(SCC2=C(C(=O)O)N3C(=O)[C@@H](NC(=O)Cn4cnnn4)[C@H]3SC2)s1: 34

Turning now to a further record.
Form: item O=C(O)c1cc(O)c2c(c1)C(=O)c1cccc(O)c1C2=O ; test system Staphylococcus aureus (SAU); Zone of inhibition: 7

---

System: multi-resistant Staphylococcus aureus 18-206
test description: paper diffusion method drug sensitivity test
Type: cell-based
experimental parameters: Multi-resistant Staphylococcus aureus 18-206; 30 μg/tablet paper disc (6.35 mm); LB plate, 37° C., 24 h
A collection of compounds and their measured Zone of inhibition
Number only, in mm; omit the unit.

Cc1nnc(SCC2=C(C(=O)O)N3C(=O)[C@@H](NC(=O)Cn4cnnn4)[C@H]3SC2)s1 [Cefazolin]: 22

Consider O=C(OC/C=C/c1ccccc1)c1cc(O)c2c(c1)C(=O)c1cccc(O)c1C2=O [Cinnamyl alcohol cassic acid ester] . Its measured Zone of inhibition is 15

For record OCC=Cc1ccccc1 [Cinnamyl alcohol] the listed Zone of inhibition is 0

Query O=C(O)c1cc(O)c2c(c1)C(=O)c1cccc(O)c1C2=O [Cassic acid] yields Zone of inhibition of 7
